# experiment notes: Inhibition of Pseudomonas aeruginosa FabG assessed as reduction in Acetoacetyl-coenzyme-A substrate in presence of NADPH preincubated for 5 mins followed by substrate addition and measured for 6 to 10 mins by spectrophotometric analysis
measured property: IC50

Solved cases (6 shown):
structure smiles: CCOC(=O)c1c(CSc2nc3ccccc3o2)n(C)c2cc(Br)c(O)cc12
assay result: Not Active

structure smiles: O=C(O)c1cc(Br)ccc1NC(=O)c1cccnc1Cl
assay result: Not Active

structure smiles: CCOC(=O)c1c(CSc2nc3ccccc3s2)n(C)c2cc(Br)c(O)cc12
assay result: Not Active

structure smiles: O=C(CCBr)Nc1ccc(Br)cc1C(=O)O
assay result: Not Active

structure smiles: O=C(Nc1ccc(Br)cc1C(=O)O)c1cccc(I)c1
assay result: Not Active

structure smiles: Cc1c(Br)cccc1C(=O)Nc1ccc(Br)cc1C(=O)O
assay result: Not Active

Now take the following compound into account.
Answer with reported IC50 of "CCOC(=O)c1c(CSc2nc3ccccc3s2)n(Cc2ccccc2)c2cc(Br)c(O)cc12"
Not Active

----------
# experiment notes: Inhibition of Acinetobacter baumannii FabG assessed as reduction in Acetoacetyl-coenzyme-A substrate in presence of NADPH preincubated for 5 mins followed by substrate addition and measured for 6 to 10 mins by spectrophotometric analysis
# test settings: read-out: IC50
measured property: pIC50
Just the number, please; pIC50 means minus log10 of the concentration in mol/L.

Answer with reported pIC50 of "Cc1c(Br)cccc1C(=O)Nc1ccc(Br)cc1C(=O)O"
4.44

Answer with reported pIC50 of "O=C(Nc1ccc(Br)cc1C(=O)O)c1cccc(I)c1"
4.80

----------
What IC50 was measured for each of the following?
# experiment notes: Inhibition of Salmonella typhimurium FabG assessed as reduction in Acetoacetyl-coenzyme-A substrate in presence of NADPH preincubated for 5 mins followed by substrate addition and measured for 6 to 10 mins by spectrophotometric analysis
# Design: species or system Salmonella enterica subsp. enterica serovar Typhimurium
# test settings: read-out: IC50
// units = µM; emit number, no label

Answer with reported IC50 of "O=C(Nc1ccc(Br)cc1C(=O)O)c1cccc(I)c1"
37.4

Answer with reported IC50 of "O=C(O)c1cc(Br)ccc1NC(=O)c1cccnc1Cl"
51
